TEST SYSTEM: human PCSK9 (PCSK9 antigen, SEQ ID NO. 53) (human, UniProt A8T644 31-152; Q8NBP7 153-692, Biotin-labelled on amines in the MSD-SET and sorting experiments; positions not given.); note: unit not given here
TEST DESCRIPTION: cell-based or functional assay
MEASURED ATTRIBUTE: BODIPY-LDL uptake by HepG2 cells, fluorescence, 4.2 nM, replicate 2
# print the numeric value only

# query: BODIPY-LDL uptake by HepG2 cells, fluorescence, 4.2 nM, replicate 2 of entry Evolocumab (antibody, V domains shown) VH: QVQLVQSGAEVKKPGASVKVSCKASGYTLTSYGISWVRQAPGQGLEWMGWVSFYNGNTNYAQKLQGRGTMTTDPSTSTAYMELRSLRSDDTAVYYCARGYGMDVWGQGTTVTVSS VL: QSALTQPASVSGSPGQSITISCTGTSSDVGGYNSVSWYQQHPGKAPKLMIYEVSNRPSGVSNRFSGSKSGNTASLTISGLQAEDEADYYCNSYTSTSMVFGGGTKLTVL
0.36

# query: BODIPY-LDL uptake by HepG2 cells, fluorescence, 4.2 nM, replicate 2 of entry ADI-10085 (antibody, human IgG2, kappa, V domains shown, IgG) VH: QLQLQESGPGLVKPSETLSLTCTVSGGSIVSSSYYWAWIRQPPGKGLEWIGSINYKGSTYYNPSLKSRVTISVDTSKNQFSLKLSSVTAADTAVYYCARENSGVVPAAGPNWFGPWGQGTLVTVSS VL: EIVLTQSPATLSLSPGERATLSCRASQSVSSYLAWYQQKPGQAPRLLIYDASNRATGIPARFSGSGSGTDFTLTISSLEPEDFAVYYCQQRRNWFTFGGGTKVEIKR
0.435

# query: BODIPY-LDL uptake by HepG2 cells, fluorescence, 4.2 nM, replicate 2 of entry ADI-02396 (antibody, human IgG2, kappa, V domains shown, IgG; also called parent antibody) VH: QLQLQESGPGLVKPSETLSLTCTVSGGSISSSSYYWGWIRQPPGKGLEWIGSIYYSGSTYYNPSLKSRVTISVDTSKNQFSLKLSSVTAADTAVYYCAREGSGVVPAAGPNWFDPWGQGTLVTVSS VL: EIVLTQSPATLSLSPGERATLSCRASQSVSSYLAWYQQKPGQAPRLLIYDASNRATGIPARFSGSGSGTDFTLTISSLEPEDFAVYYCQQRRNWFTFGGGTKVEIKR
0.352

# query: BODIPY-LDL uptake by HepG2 cells, fluorescence, 4.2 nM, replicate 2 of entry Lodelcizumab (antibody, V domains shown) VH: QVQLVQSGAEVKKPGASVKVSCKASGYTFSTMYMSWVRQAPGQGLEWMGRIDPANEHTNYAQKFQGRVTMTRDTSISTAYMELSRLTSDDTAVYYCARSYYYYNMDYWGQGTLVTVSS VL: QIVLTQSPATLSVSPGERATLSCRASQSVSYMHWYQQKPGQAPRLLIYGVFRRATGIPDRFSGSGSGTDFTLTIGRLEPEDFAVYYCLQWSSDPPTFGQGTKLEIK
0.352
